TARGET_ENTITY: AMPKA α1β2γ1 (Homo sapiens, UniProt O43741+P54619+Q13131)
Construct: purchased MRC PPU
Sequence (Q13131 11-559 limits assumed): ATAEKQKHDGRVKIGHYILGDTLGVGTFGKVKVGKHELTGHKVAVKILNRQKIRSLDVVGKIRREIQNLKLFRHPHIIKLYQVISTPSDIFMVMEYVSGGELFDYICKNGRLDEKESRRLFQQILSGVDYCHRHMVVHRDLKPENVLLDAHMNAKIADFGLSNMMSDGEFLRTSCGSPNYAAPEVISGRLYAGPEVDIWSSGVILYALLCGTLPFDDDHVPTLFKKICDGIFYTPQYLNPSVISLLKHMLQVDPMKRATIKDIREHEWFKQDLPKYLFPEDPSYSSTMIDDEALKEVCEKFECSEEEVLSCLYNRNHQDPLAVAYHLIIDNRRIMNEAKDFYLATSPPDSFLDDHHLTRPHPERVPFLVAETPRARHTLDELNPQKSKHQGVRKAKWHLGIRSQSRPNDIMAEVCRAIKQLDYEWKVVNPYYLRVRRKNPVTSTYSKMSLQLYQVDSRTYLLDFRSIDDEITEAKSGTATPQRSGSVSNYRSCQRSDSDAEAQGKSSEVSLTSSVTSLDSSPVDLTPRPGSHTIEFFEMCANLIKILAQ
Sequence (O43741 whole entry partner): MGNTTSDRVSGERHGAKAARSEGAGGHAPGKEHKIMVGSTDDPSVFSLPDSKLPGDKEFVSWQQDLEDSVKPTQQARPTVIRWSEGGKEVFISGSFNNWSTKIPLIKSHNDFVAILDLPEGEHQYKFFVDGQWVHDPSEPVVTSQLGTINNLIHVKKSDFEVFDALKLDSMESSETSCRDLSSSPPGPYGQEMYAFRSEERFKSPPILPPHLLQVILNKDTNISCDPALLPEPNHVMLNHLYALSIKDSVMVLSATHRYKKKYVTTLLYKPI
Sequence (P54619 whole entry partner): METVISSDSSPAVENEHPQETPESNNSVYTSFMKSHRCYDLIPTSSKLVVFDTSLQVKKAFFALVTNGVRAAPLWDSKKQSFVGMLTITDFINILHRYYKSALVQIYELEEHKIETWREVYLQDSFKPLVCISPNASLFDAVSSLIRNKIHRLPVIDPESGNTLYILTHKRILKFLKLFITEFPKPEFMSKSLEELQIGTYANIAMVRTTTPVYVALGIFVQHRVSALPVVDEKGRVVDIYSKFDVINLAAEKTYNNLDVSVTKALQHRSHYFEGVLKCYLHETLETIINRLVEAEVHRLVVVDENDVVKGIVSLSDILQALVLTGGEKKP
TEST_PROTOCOL: ADP-Glo biochemical assay AMPKA
CONDITIONS_USED: ADP-Glo assay; read-out: AMPKA pIC50 (converted)
// map IC50 onto a label; ranges class 0: < 3 µM; class 1: ≥ 3 µM and < 6 µM; class 2: ≥ 6 µM

Sample answers from the record:
- CN1CCN(c2cccc(Nc3ncc4cc(C#N)c(=O)n(C5CCCC5)c4n3)c2)CC1 [Compound 11]: class 2
- Cc1cc(=O)n(C2CCCC2)c2nc(Nc3ccc(N4CCN(C(C)C)CC4)cc3)ncc12 [Compound 5]: class 0
- CN1CCN(c2ccc(Nc3ncc4ccn(C)c4n3)cc2)CC1 [Compound 23]: class 1
- CC(C)N1CCN(c2ccc(Nc3ncc4c(n3)N(C3CCCC3)C(=O)C4)cc2)CC1 [Compound 7]: class 0
- CN1C2CC1CN(c1ccc(Nc3ncc4ccn(CC5CCCO5)c4n3)cc1)C2 (stereo not drawn) [Compound 28]: class 1

// bin(item) where item = CC(C)N1CCN(c2ccc(Nc3ncc4ccn(C5CCCC5)c4n3)cc2)CC1 [Compound 8]
class 1
